- Tested on: hemagglutinin on whole virus (Influenza A virus A/mallard/Sweden/91/2002 (H7N9))
- Protocol: ELAA
- Condition Label: […], pH 7.4), 25 C, […], room temperature, 1 h
Readout Kind: Kd (nM)
Numeric answer only, unit nM assumed.

Look at this sequence and give its reported Kd. TTGGGGTTATTTTGGGAGGGCGGGGGTT [RHA0385-Biotin]
13

----------
- Target: hemagglutinin on whole virus (Influenza A virus A/Puerto-Rico/8/1934 (H1N1)) (UniProt P03452)
- Sequence (P03452 whole entry): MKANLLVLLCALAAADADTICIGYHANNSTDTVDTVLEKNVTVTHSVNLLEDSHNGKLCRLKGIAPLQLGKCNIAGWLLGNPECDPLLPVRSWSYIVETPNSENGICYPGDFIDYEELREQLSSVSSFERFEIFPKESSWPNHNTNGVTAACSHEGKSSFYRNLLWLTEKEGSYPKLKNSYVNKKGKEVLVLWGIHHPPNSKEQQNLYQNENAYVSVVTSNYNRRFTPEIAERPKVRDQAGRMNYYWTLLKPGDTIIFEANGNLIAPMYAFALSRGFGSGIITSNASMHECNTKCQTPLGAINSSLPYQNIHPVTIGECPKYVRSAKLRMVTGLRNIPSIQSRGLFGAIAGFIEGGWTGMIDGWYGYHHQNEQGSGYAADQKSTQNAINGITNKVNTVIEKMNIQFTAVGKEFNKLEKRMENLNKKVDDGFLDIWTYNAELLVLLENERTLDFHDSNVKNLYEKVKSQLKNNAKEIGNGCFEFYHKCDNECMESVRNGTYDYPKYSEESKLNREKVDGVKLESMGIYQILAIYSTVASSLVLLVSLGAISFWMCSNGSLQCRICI
- Protocol: ELAA
Readout Kind: Kd (nM)
Numeric answer only, unit nM assumed.

Look at this sequence and give its reported Kd. TTGGGGTTATTTTGGGAGGGCGGGGGTT [RHA0385-Biotin]
13

----------
- System: recombinant hemagglutinin H5 (Influenza A virus (H5 subtype, strain not stated))
- Protocol: SPR
- Condition Label: […], pH 7.4), 25 C, room temperature, 1 h
Readout Kind: Kd (nM)
Numeric answer only, unit nM assumed.

Look at this sequence and give its reported Kd. TTGGGGTTATTTTGGGAGGGCGGGGGTT [RHA0385]
13

----------
- System: hemagglutinin on whole virus (Influenza A virus A/tern/South Africa/1/1961 (H5N3))
- Protocol: ELAA
- Condition Label: […], pH 7.4), 25 C, […], room temperature, 1 h
Readout Kind: Kd (nM)
Numeric answer only, unit nM assumed.

Look at this sequence and give its reported Kd. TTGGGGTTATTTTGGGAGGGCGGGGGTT [RHA0385-Biotin]
200

----------
- Target: hemagglutinin on whole virus (Influenza A virus A/Aichi/2/1968 (H3N2)) (UniProt P03437)
- Protocol: ELAA
Readout Kind: Kd (nM)
Numeric answer only, unit nM assumed.

Look at this sequence and give its reported Kd. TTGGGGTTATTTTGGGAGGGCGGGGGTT [RHA0385-Biotin]
17

----------
- Tested on: hemagglutinin on whole virus (Influenza A virus A/England/42/1972 (H3N2))
- Protocol: ELAA
- Condition Label: […], pH 7.4), 25 C, […], room temperature, 1 h
Readout Kind: Kd (nM)
Numeric answer only, unit nM assumed.

Look at this sequence and give its reported Kd. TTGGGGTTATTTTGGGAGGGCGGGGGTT [RHA0385-Biotin]
40

----------
- Target: hemagglutinin on whole virus (Influenza A virus A/Vietnam/1203/2004-PR8/CDC-R (H5N1)) (UniProt Q6DQ33)
- Protocol: ELAA
- Condition Label: […], pH 7.4), 25 C, […], room temperature, 1 h
Readout Kind: Kd (nM)
Numeric answer only, unit nM assumed.

Look at this sequence and give its reported Kd. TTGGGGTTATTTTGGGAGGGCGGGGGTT [RHA0385-Biotin]
34

----------
- System: recombinant hemagglutinin H1 (Influenza A virus (H1 subtype, strain not stated))
- Protocol: SPR
- Condition Label: […], pH 7.4), 25 C, room temperature, 1 h
Readout Kind: Kd (nM)
Numeric answer only, unit nM assumed.

Look at this sequence and give its reported Kd. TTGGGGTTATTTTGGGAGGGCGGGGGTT [RHA0385]
7
